target: full length active recombinant SYK enzyme (Homo sapiens, UniProt P43405); construct: full length active recombinant SYK enzyme (Millipore, Calif.); purchased Millipore; test: Inhibition of Syk tyrosine phosphorylation activity (LANCE TR-FRET kinase assay); assay type: biochemical
pIC50: −log10 of the molar value.
EXPERIMENTAL_READOUT: pIC50

Requested field: pIC50. Item: CC[C@@H](Nc1nc(Nc2cccc(OC(F)(F)F)c2)c(C(N)=O)cc1F)C(N)=O [Example 263]
6.00 to 7.00

Try this molecule too: Cc1cc(Nc2nc(N[C@@H]3CCCC[C@@H]3N)c(F)cc2C(N)=O)cc(C)n1 [Example 86]
8.00 to 9.00

Try this molecule too: Cc1cc(Nc2cc(N[C@H](C)C(N)=O)ccc2C(N)=O)sn1 [Example 10]
6.00 to 7.00

Try this molecule too: CC[C@@H](Nc1ccc(C(N)=O)c(Nc2cccc3c2ccn3C)n1)C(N)=O [Example 209]
7.00 to 8.00
